- Test system: HOP-62 NSCLC
- procedureDetails: NCI tumour cell line growth inhibition, 48 h; in the data active = GI50 below about 0.43 µM; inactive = the rest
Outcome codes: active, inactive

molecule	assignedLabel
COC(=O)Nc1nc2ccc(C(=O)c3ccc(F)cc3)cc2[nH]1	inactive
CC[C@@]1(O)C(=O)OCc2c1cc1n(c2=O)Cc2c-1nc1cc(F)c(C)c3c1c2[C@@H](NC(=O)CO)CC3	active
CC/C(=C(/c1ccc(OCCN(C)C)cc1)c1ccc(OC(=O)CCCCCCCCC(=O)c2c(C)[nH]c(/C=C3\N=C(c4ccc[nH]4)C=C3OC)c2C)cc1)c1ccccc1	inactive
COCCn1c2c([n+](Cc3cnccn3)c1C)C(=O)c1ccccc1C2=O	active
COc1cc(C2CC(c3cccc(Nc4ccnc5cc(Cl)ccc45)c3)=NN2c2ccccc2)cc(OC)c1OC (stereo not given)	inactive
C[C@]12CC[C@@H]3c4ccc(OC(=O)N(CCCl)CCCl)cc4CC[C@H]3[C@@H]1CC[C@@H]2OP(=O)(O)O	inactive
CN(C)CCCCNc1ccc(NCCCCN(C)C)c2c1C(=O)c1c(O)ccc(O)c1C2=O	inactive
CC(=O)N[C@@H](Cc1ccc(OP(=O)(O)O)cc1)C(=O)N[C@H]1CCC(=O)N2CCC[C@@H](C(=O)NC3CCc4ccccc43)N2C1=O (stereo not given in full)	inactive
CCCCOC(=O)c1c(C)[nH]c(/C=C2\N=C(c3ccc[nH]3)C=C2OC)c1C	active
COc1ccc(/C=C/C(=O)/C=C(O)/C=C/c2ccc(OC)c(OC)c2)cc1OC	inactive
CC[C@@H](C)/C=C(C)/C=C/C(=O)c1c(O)c(-c2ccc(O)cc2)cn(OC2CC(=O)CCC(C)OC(=O)CC2O)c1=O (stereo not given in full)	active
Fc1ccc(Nc2nc3nonc3nc2Nc2ccc(I)cc2)cc1	active
Cc1c(C(=O)c2ccccc2)[n+](=O)c2cc(F)c(F)cc2n1[O-]	inactive
O=C1OCC2=C1C(c1cccc(Cl)c1)c1cc3c(cc1N2CCO)CCC3 (stereo not given)	active
COc1ncc(-c2ccc3nccc(C#CCCCCC(=O)NO)c3c2)cc1NS(=O)(=O)c1ccc(F)cc1F	active

---

- System: SW-620 colon
- procedureDetails: NCI tumour cell line growth inhibition, 48 h
Below, each of the compounds is paired with its reported TGI value.

compound	testedTarget	rel	TGI / µM
O=C(CC(=O)N1N=C(N(c2ccccc2)c2ccccc2)CC1c1ccccc1)Nc1cccc(Cl)c1 (stereo not given)	SW-620 colon	>	100
CC(=O)OCC1OC(O[C@H]2C=C[C@@H](C(=O)OCc3ccccc3)n3c(=O)n(-c4ccccc4)c(=O)n32)C(OC(C)=O)C(OC(C)=O)C1OC(C)=O (stereo not given in full)	SW-620 colon	=	17
O=C(CC1(O)C(=O)Nc2ccccc21)c1ccccc1O (stereo not given)	SW-620 colon	>	100
Fc1ccc(Nc2nc3nonc3nc2Nc2ccc(I)cc2)cc1	SW-620 colon	=	15.6
Cc1cc(C)c(/C=N/NS(=O)(=O)c2ccccc2)c(C)c1	SW-620 colon	>	100
CCN(CC)C(=O)CC12CCCCC1=Nc1ccccc12 (stereo not given)	SW-620 colon	>	100
CC(C)CC1N=C(OCc2ccccc2)OC1=O (stereo not given)	SW-620 colon	>	100
CC1CCc2c(sc3ncnc(N/N=C/c4ccc(Cl)cc4)c23)C1 (stereo not given)	SW-620 colon	>	100
Cc1c(C(=O)c2ccccc2)[n+](=O)c2cc(F)c(F)cc2n1[O-]	SW-620 colon	=	3.14
COc1cc(N2CCC(N)CC2)ccc1Nc1ncc(Cl)c(-c2c[nH]c3ccccc23)n1	SW-620 colon	=	1.44
